Origin of the recorded values: paper PMC6353850

Target: AaegOR9 (Aedes aegypti, UniProt Q177X5)
Sequence (Q178U6 whole entry): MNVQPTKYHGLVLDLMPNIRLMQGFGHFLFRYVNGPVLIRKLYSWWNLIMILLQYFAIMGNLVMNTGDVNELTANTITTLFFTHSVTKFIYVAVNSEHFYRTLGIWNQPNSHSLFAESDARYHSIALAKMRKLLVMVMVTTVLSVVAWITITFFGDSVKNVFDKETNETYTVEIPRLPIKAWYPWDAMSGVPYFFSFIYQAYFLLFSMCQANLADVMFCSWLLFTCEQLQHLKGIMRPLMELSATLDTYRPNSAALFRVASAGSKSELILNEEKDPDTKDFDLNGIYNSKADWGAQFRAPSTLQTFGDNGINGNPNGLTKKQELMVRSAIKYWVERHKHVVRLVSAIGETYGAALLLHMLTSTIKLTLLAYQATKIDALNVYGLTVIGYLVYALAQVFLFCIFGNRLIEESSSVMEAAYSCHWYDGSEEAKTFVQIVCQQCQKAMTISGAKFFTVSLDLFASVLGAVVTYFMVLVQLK
Sequence (Q177X5 entry or part of it): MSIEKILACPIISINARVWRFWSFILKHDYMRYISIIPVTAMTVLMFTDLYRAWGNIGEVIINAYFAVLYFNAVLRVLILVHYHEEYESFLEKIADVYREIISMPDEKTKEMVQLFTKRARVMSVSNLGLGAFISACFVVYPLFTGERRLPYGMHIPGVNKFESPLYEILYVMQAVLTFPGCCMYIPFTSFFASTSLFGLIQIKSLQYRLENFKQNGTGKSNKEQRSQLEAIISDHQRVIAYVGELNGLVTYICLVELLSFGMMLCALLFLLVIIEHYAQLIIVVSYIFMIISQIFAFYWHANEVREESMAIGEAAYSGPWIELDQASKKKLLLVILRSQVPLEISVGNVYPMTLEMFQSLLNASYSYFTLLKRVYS
Assay: Two-electrode voltage clamp of Xenopus oocytes expressing AaegOR9-ORco (tuning curve and concentration-response)
Assay type: cell-based
Details: Aedes aegypti OR9-ORco; kairomone receptor; This study
EXPERIMENTAL ENDPOINT: EC50 (nM)
Please reply with the bare figure in nM and do not write the unit itself.

Query string: Data request, read-out EC50, for Cc1c[nH]c2ccccc12 [skatole, 3-methylindole]
Result string: 4.8

###

For each entry below, report its Rank according to potency (No.) value.
Biological target: AaegOR9 (Aedes aegypti, UniProt Q177X5)
Experiment: Two-electrode voltage clamp of Xenopus oocytes expressing AaegOR9-ORco (tuning curve and concentration-response)
Assay type: cell-based
Conditions: AaegOR9 tuning curve of Figure 1, 500 nM; 1 = most potent of 31
Output: the number by itself.

Query string: Data request, read-out Rank according to potency (No.), for c1ccc2ncccc2c1
Result string: 14

Query string: Data request, read-out Rank according to potency (No.), for OCCc1c[nH]c2ccccc12 [3-(2-Hydroxyethyl) indole]
Result string: 12

Query string: Data request, read-out Rank according to potency (No.), for COc1ccc2[nH]c3c(c2c1)CCNC3
Result string: 31

Query string: Data request, read-out Rank according to potency (No.), for Oc1cccc2[nH]ccc12 [4-Hydroxyindole]
Result string: 7

Query string: Data request, read-out Rank according to potency (No.), for O=C1Cc2ccccc2N1
Result string: 10

Query string: Data request, read-out Rank according to potency (No.), for Oc1ccc2[nH]ccc2c1 [5-Hydroxyindole]
Result string: 9

Query string: Data request, read-out Rank according to potency (No.), for O=C(O)C=Cc1c[nH]c2ccccc12
Result string: 18

Query string: Data request, read-out Rank according to potency (No.), for O=C1/C(=C2\Nc3ccccc3C2=O)Nc2ccccc21
Result string: 26

Query string: Data request, read-out Rank according to potency (No.), for O=C(O)CCc1c[nH]c2ccccc12
Result string: 15

Query string: Data request, read-out Rank according to potency (No.), for COc1ccc2c3c([nH]c2c1)C(C)=NCC3
Result string: 20

Query string: Data request, read-out Rank according to potency (No.), for c1ccc2c(Cc3c[nH]c4ccccc34)c[nH]c2c1
Result string: 8
